Below: a set of entries, each annotated with reported IC50.
biological target: antibody tested in the epitope mapping of Example 5; experiment: HTRF competition, test protein against biotinylated human IL-4Rα/Fc for cryptate labelled antibody
Express it in nM; write the number only.

Use the examples below as a reference point.
binder="EM07 (receptor) MKVLQEPTCVSDYMSISTCEWKMNGPTNCSTELRLLYQLVFLLSEAHTCIPENNGGAGCVCHLLMDDVVSADRYTLDLWAGQQLLWKGSFKPSEHVKPRAPGNLTVHTNVSDTLLLTWSNPYPPDNYLYNHLTYAVNIWSENDPADFRIYNVTYLEPSLRIAASTLKSGISYRARVRAWAQCYNTTWSEWSPSTKWHNSYREPFNPAFLYKVVGAADYKDDDDKAAHHHHHHHHHH" unit_annotation=nM measured_value=1.41
binder="EM06 (receptor) MKVLQEPTCVSDYMSISTCEWKMNGPTNCSTELRLLYQLVFLLSEAHTCIPENNGGAGCVCHLLMDDVVSSDNYTLDLWAGQQLLWKGSFKPSEHVKPRAPGNLTVHTNVSDTLLLTWSNPYPPDNYLYNHLTYAVNIWSENDPADFRIYNVTYLEPSLRIAASTLKSGISYRARVRAWAQCYNTTWSEWSPSTKWHNSYREPFNPAFLYKVVGAADYKDDDDKAAHHHHHHHHHH" unit_annotation=nM measured_value=3.25
binder="EM04 (receptor) MKVLQEPTCVSDYMSISTCEWKMNGPTNCSTELRLLYQLVFLLSEAHTCIPENNGGAGCVCHLLMDDPVSADNYTLDLWAGQQLLWKGSFKPSEHVKPRAPGNLTVHTNVSDTLLLTWSNPYPPDNYLYNHLTYAVNIWSENDPADFRIYNVTYLEPSLRIAASTLKSGISYRARVRAWAQCYNTTWSEWSPSTKWHNSYREPFNPAFLYKVVGAADYKDDDDKAAHHHHHHHHHH" unit_annotation=nM measured_value=15
binder="EM02 (receptor) MKVLQEPTCVSDYMSISTCEWKMNGPTNCSTELRLLYQLVFLLSEAHTCIPENNGGAGCVCHLLMNDVVSADNYTLDLWAGQQLLWKGSFKPSEHVKPRAPGNLTVHTNVSDTLLLTWSNPYPPDNYLYNHLTYAVNIWSENDPADFRIYNVTYLEPSLRIAASTLKSGISYRARVRAWAQCYNTTWSEWSPSTKWHNSYREPFNPAFLYKVVGAADYKDDDDKAAHHHHHHHHHH" unit_annotation=nM measured_value=2.25
binder="EM01 (receptor) MKVLQEPTCVSDYMSISTCEWKMNGPTNCSTELRLLYQLVFLLSEAHTCIPENNGGAGCVCHLEMDDVVSADNYTLDLWAGQQLLWKGSFKPSEHVKPRAPGNLTVHTNVSDTLLLTWSNPYPPDNYLYNHLTYAVNIWSENDPADFRIYNVTYLEPSLRIAASTLKSGISYRARVRAWAQCYNTTWSEWSPSTKWHNSYREPFNPAFLYKVVGAADYKDDDDKAAHHHHHHHHHH" unit_annotation=nM measured_value=0.71

Switching to the query record.
*Q* Report IC50 for EM05 (receptor) MKVLQEPTCVSDYMSISTCEWKMNGPTNCSTELRLLYQLVFLLSEAHTCIPENNGGAGCVCHLLMDDVVQADNYTLDLWAGQQLLWKGSFKPSEHVKPRAPGNLTVHTNVSDTLLLTWSNPYPPDNYLYNHLTYAVNIWSENDPADFRIYNVTYLEPSLRIAASTLKSGISYRARVRAWAQCYNTTWSEWSPSTKWHNSYREPFNPAFLYKVVGAADYKDDDDKAAHHHHHHHHHH please.
*A* 1.65
